- target_system: UniProt:Q9R1U7
- protocol_summary: TP_TRANSPORTER: inhibition of Homovanillic acid uptake (HVA: 0.2 uM, Baclofen: 1000 uM) in Xenopus laevis oocytes
- Assay type: functional, cell-based, Oocyte
- Set-up: scale not given: the % may be the effect or the level left
- measurement_conditions: Xenopus laevis oocytes (Organic anion transporter 3), probe Homovanillic acid (HVA), read-out: Activity
attribute_measured: activity at 1000 µM

Enquiry: Dear colleague, I am looking for the recorded activity at 1000 µM of the following compound: NCC(CC(=O)O)c1ccc(Cl)cc1 (stereo unspecified)
Return: 23.2%

====

- target_system: Organic anion transporter 3 (OAT3) (Rattus norvegicus, UniProt Q9R1U7)
- Sequence (Q9R1U7 whole entry): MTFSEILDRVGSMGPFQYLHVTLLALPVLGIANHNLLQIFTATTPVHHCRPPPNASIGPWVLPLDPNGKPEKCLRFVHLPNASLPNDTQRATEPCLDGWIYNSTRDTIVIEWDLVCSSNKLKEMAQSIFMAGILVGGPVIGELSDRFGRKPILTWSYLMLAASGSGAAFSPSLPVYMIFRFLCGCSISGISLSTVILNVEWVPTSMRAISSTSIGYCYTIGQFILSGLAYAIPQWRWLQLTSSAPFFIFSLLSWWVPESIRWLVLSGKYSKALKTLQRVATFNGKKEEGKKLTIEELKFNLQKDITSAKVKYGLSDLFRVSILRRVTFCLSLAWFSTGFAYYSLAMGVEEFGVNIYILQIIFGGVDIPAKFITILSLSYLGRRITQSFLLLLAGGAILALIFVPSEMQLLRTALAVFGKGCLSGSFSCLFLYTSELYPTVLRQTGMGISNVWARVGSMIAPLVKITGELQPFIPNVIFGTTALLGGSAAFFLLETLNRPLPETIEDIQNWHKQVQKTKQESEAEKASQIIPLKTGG
- protocol_summary: TP_TRANSPORTER: inhibition of Homovanillic acid uptake (HVA: 0.2 uM, 6-mercaptopurine: 1000 uM) in Xenopus laevis oocytes
- Assay type: functional, cell-based, Oocyte
- Set-up: scale not given: the % may be the effect or the level left
- measurement_conditions: Xenopus laevis oocytes (Organic anion transporter 3), probe Homovanillic acid (HVA), read-out: Activity
attribute_measured: activity at 1000 µM
Report as: number unit

Enquiry: Dear colleague, I am looking for the recorded activity at 1000 µM of the following molecule: Sc1ncnc2nc[nH]c12 [MERCAPTOPURINE ANHYDROUS]
Return: 8.67%

====

- target_system: Organic anion transporter 3 (OAT3) (Rattus norvegicus, UniProt Q9R1U7)
- protocol_summary: TP_TRANSPORTER: inhibition of Homovanillic acid uptake (HVA: 0.2 uM, Probenecid: 1000 uM) in Xenopus laevis oocytes
- Type: functional, cell-based, Oocyte
- Parameters: scale not given: the % may be the effect or the level left
- measurement_conditions: Xenopus laevis oocytes (Organic anion transporter 3), probe Homovanillic acid (HVA), read-out: Activity
attribute_measured: activity at 1000 µM (%)
The response must be a number in % with no trailing unit.

Enquiry: Dear colleague, I am looking for the recorded activity at 1000 µM of the following compound: CCCN(CCC)S(=O)(=O)c1ccc(C(=O)O)cc1 [PROBENECID]
Return: 23.4

====

- target_system: Organic anion transporter 3 (OAT3) (Rattus norvegicus, UniProt Q9R1U7)
- protocol_summary: TP_TRANSPORTER: inhibition of Homovanillic acid uptake (HVA: 0.2 uM, E1S; 1000 uM) in Xenopus laevis oocytes
- Assay type: functional, cell-based, Oocyte
- Design: scale not given: the % may be the effect or the level left
- measurement_conditions: Xenopus laevis oocytes (Organic anion transporter 3), probe Homovanillic acid (HVA), read-out: Activity
attribute_measured: activity at 1000 µM (%)
The response must be a number in % with no trailing unit.

Enquiry: Dear colleague, I am looking for the recorded activity at 1000 µM of the following compound: C[C@]12CC[C@@H]3c4ccc(OS(=O)(=O)O)cc4CC[C@H]3[C@@H]1CCC2=O
Return: 4.35
